- STUDY TARGET: UniProt P30547
- Sequence (P30547 whole entry): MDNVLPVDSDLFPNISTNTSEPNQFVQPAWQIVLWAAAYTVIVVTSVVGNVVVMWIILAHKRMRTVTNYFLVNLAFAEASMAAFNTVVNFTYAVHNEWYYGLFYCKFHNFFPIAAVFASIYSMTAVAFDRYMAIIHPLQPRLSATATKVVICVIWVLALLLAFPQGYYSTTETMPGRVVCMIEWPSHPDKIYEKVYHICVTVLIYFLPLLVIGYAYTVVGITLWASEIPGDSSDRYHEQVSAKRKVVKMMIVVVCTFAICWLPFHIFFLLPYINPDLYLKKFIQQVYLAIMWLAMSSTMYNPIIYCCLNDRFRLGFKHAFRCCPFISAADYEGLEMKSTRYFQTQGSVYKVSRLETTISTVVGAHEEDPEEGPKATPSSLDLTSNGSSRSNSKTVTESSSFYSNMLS
- ASSAY OVERVIEW: Antagonist activity against tachykinin receptor 1 activity in guinea pig ileum in vitro
- Assay type: functional, tissue-based
Consider the cut-off 10 nM. If the recorded Kb is strictly smaller, the label is MET; if not, the label is NOT MET.

Solved cases below.
O=C1c2c(ccnc2-c2ccccc2)OCCCN1Cc1cc(C(F)(F)F)cc(C(F)(F)F)c1; NOT MET
O=C1c2c(-c3ccccc3F)cc(N3CCC(N4CCCC4)CC3)nc2OCCCN1Cc1cc(C(F)(F)F)cc(C(F)(F)F)c1; MET
O=C1c2c(-c3ccccc3)cc(N3CCCC3)nc2OCCCN1Cc1cc(C(F)(F)F)cc(C(F)(F)F)c1; NOT MET
CN1CCN(c2cc(-c3ccccc3)c3c(n2)OCCCN(Cc2cc(C(F)(F)F)cc(C(F)(F)F)c2)C3=O)CC1; MET
O=C1c2c(-c3ccccc3)cc(N3CCC(N4CCCC4)CC3)nc2OCCCN1Cc1cc(C(F)(F)F)cc(C(F)(F)F)c1; MET

Would you kindly look at the next entry?
Please determine if O=C1c2c(-c3ccccc3)cc(N3CCC(N4CCCCC4)CC3)nc2OCCCN1Cc1cc(C(F)(F)F)cc(C(F)(F)F)c1 is below 10 nM in terms of Kb. MET

* * *

Exercise: state measured Remaining ratio for each of the molecules provided.
- Organism: Rattus norvegicus
- ASSAY OVERVIEW: Metabolic stability expressed as the remaining ratio of compound in rat microsomes after incubation in a shaking water bath for 1 hour
- Type: functional
Answers are plain numbers, in %.

Past entries and their recorded results:
O=C1c2c(-c3ccccc3)cc(N3CCC(N4CCCC4)CC3)nc2OCCCN1Cc1cc(C(F)(F)F)cc(C(F)(F)F)c1; 86
CN1CCN(c2cc(-c3ccccc3)c3c(n2)OCCCN(Cc2cc(C(F)(F)F)cc(C(F)(F)F)c2)C3=O)CC1; 100
CN(Cc1cc(C(F)(F)F)cc(C(F)(F)F)c1)C(=O)c1cccnc1-c1ccccc1; 70
FC(F)(F)c1cc(COc2cccnc2-c2ccccc2)cc(C(F)(F)F)c1; 9
O=C1c2c(-c3ccccc3)cc(N3CCOCC3)nc2OCCCN1Cc1cc(C(F)(F)F)cc(C(F)(F)F)c1; 100
Cc1ccccc1-c1cc(N2CCC(N3CCCC3)CC2)nc2c1C(=O)N(Cc1cc(C(F)(F)F)cc(C(F)(F)F)c1)CCCO2; 100
O=C1c2c(-c3ccccc3Cl)cc(N3CCC(N4CCCC4)CC3)nc2OCCCN1Cc1cc(C(F)(F)F)cc(C(F)(F)F)c1; 89
O=C1c2c(ccnc2-c2ccccc2)OCCCN1Cc1cc(C(F)(F)F)cc(C(F)(F)F)c1; 100
CN(Cc1cc(C(F)(F)F)cc(C(F)(F)F)c1)C(=O)c1ccc(N2CCOCC2)nc1-c1ccccc1; 100
O=C1c2c(-c3ccccc3)cc(N3CCCCC3)nc2OCCCN1Cc1cc(C(F)(F)F)cc(C(F)(F)F)c1; 70

For each of the molecules below, state Remaining ratio.
1. O=C1c2c(-c3ccccc3F)cc(N3CCC(N4CCCC4)CC3)nc2OCCCN1Cc1cc(C(F)(F)F)cc(C(F)(F)F)c1
2. O=C1c2c(cc(N3CCOCC3)nc2-c2ccccc2)OCCCN1Cc1cc(C(F)(F)F)cc(C(F)(F)F)c1
3. O=C1c2c(-c3ccccc3)cc(N3CCCC3)nc2OCCCN1Cc1cc(C(F)(F)F)cc(C(F)(F)F)c1
4. O=C1c2c(-c3ccccc3)cc(N3CCC(N4CCCCC4)CC3)nc2OCCCN1Cc1cc(C(F)(F)F)cc(C(F)(F)F)c1

100
100
71
100

Batch lookup, Remaining ratio per entry.
1. COc1cc(N2CCOCC2)nc(-c2ccccc2)c1C(=O)N(C)Cc1cc(C(F)(F)F)cc(C(F)(F)F)c1
2. Cc1ccccc1-c1nc(N2CCC(N3CCCC3)CC2)cc2c1C(=O)N(Cc1cc(C(F)(F)F)cc(C(F)(F)F)c1)CCCO2

100
100
